Endpoint Name: melting point

Before answering, review these 2 worked examples.
- Structure String: "Cn1nc2ccccc2c1C(=O)NCC1CCN(CCc2ccc(F)cc2F)CC1"
  Endpoint Name: "melting point"
  Value Measured: "122 to 126 °C"
- Structure String: "CCCn1c(=O)nc(SC)c2[nH]c(C3CCCC3)nc21"
  Endpoint Name: "melting point"
  Value Measured: "258 to 259 °C"

Now for another entry.
(Q) Return melting point for the following compound: CCc1cc(=O)c2c([nH]1)CCCN2C(=O)C(F)(F)F
(A) 271 to 274 °C

----------
Endpoint Name: melting point

(Q) Return melting point for the following compound: CSc1cncnc1-c1ssc(=S)c1C
(A) 89 to 90 °C

(Q) Return melting point for the following compound: CCCCCCCCCCCCCCCCOCC(O)COC(c1ccccc1)(c1ccccc1)c1ccccc1 (stereo not drawn)
(A) 49 °C

(Q) Return melting point for the following compound: CC(C)P1(=O)c2ccccc2CN1c1cccc(C(F)(F)F)c1 (stereo not drawn)
(A) 117 to 119 °C

----------
Endpoint Name: melting point

- Compound: "Cc1nnc2n1-c1sc(Cc3ccccc3)cc1C(c1ccccc1Cl)=NC2"
  melting point: "161 to 163 °C"

(Q) Return melting point for the following compound: CCn1c(=O)n(CC)c2cc3c(N4CCN(C(=O)Nc5ccc(Oc6ccccc6)cc5)CC4)nncc3cc21
(A) 125 to 128 °C

(Q) Return melting point for the following compound: COCOc1nn(-c2ccccc2)cc1C=O
(A) 106 to 107 °C

(Q) Return melting point for the following compound: O=C(O)C(CC1CCCCC1)c1ccc(OCc2ccccn2)cc1 (stereo unspecified)
(A) 100 to 103 °C

(Q) Return melting point for the following compound: COCCOc1nc(NC(C)=O)nc2ccc(Cl)nc12
(A) 135 °C

(Q) Return melting point for the following compound: Cc1cccc(N2CCN(C(=O)CCCCCCC(=O)NO)CC2C)c1 (stereo unspecified)
(A) 75 to 76 °C

----------
Below, each of the compounds is paired with its reported melting point value.

Before answering, review these 2 worked examples.
- Compound: "COc1cccc(Oc2c(NS(=O)(=O)c3ccc(C(C)(C)C)cc3)ncnc2OCCOc2ncc(-c3ccccc3)cn2)c1"
  Endpoint Name: "melting point"
  Value Measured: "160 to 161 °C"
- Compound: "CC(=O)Nc1ccc(-c2ccc(C(C)=O)o2)cc1"
  Endpoint Name: "melting point"
  Value Measured: "214 to 215 °C"

(Q) Return melting point for the following compound: C[C@H]1CN(c2c(F)cc3c(=O)c(C(=O)O)cn(C4CC4)c3c2Br)C[C@H]1N (relative stereo)
(A) 186 to 190 °C

(Q) Return melting point for the following compound: c1cnc(-c2cccnc2)nc1
(A) 51 to 52 °C

(Q) Return melting point for the following compound: COc1cc([N+](=O)[O-])c2ncccc2c1OCc1ccc(Cl)cc1
(A) 115 to 116 °C

----------
Endpoint Name: melting point

(Q) Return melting point for the following compound: O=C1/C(=C(\NC2CC2)c2ccccc2)Sc2ccccc21
(A) 131 to 132 °C

(Q) Return melting point for the following compound: O=C(O)CON=C(c1ccccc1)c1cc2ccncc2[nH]1
(A) 68 to 73 °C

(Q) Return melting point for the following compound: COc1ccccc1NS(=O)(=O)c1ccc(NC2=C(Cl)C(=O)c3ccccc3C2=O)cc1
(A) 198 to 201 °C

(Q) Return melting point for the following compound: CC(C)(C)OC(=O)N[C@@H]1CCc2ccc(OS(=O)(=O)C(F)(F)F)cc2C1
(A) 52 to 55 °C

(Q) Return melting point for the following compound: COc1ccc2c(c1)c(Cc1nc(-c3ccc4ccccc4c3)cs1)c(C)n2C(=O)c1ccc(Cl)cc1
(A) 131 to 133 °C
